Kindly state Nutsedge, Yellow plant response rating for each of the entries shown.
System: nutsedge, yellow (yellow nutsedge, Cyperus esculentus)
Assay: Test C greenhouse herbicide test, pre- and postemergence
Type: in vivo
Condition Set: postemergence, 62 g ai/ha; scale 0 to 100, 0 no effect, 100 complete control
Give bare numbers.

Below: 2 compounds and their reported Nutsedge, Yellow plant response rating.
Compound | Value Observed
Cc1cc(C)c2sc(C)c(-c3c(OC(=O)OC(C)C)c(C)nn(C)c3=O)c2c1 [Compound 67] | 70
CC(=O)Oc1c(C)nn(C)c(=O)c1-c1c(C)sc2c(C)cc(C)cc12 [Compound 27] | 80

// switching to the query compound
Task: Can you share its Nutsedge, Yellow plant response rating? I mean this compound: CC(=O)Oc1c(C)nn(C)c(=O)c1-c1ccc(F)c2ccccc12 [Compound 90]
Output: 80

====

Test system: ragweed (common ragweed, Ambrosia elatior)
Assay: Test A greenhouse herbicide test, pre- and postemergence
Assay type: in vivo
Condition Set: Preemergence, 500 g ai/ha; 0 to 100 scale, 0 no effect, 100 complete control
Excerpt: […]
Readout Type: Plant response rating, Ragweed
Numbers only.

The following molecules have reported results that may help.
Molecule | Plant response rating, Ragweed
Cc1cc(C)c2ccccc2c1-c1c(O)cnn(C)c1=O [Compound 51] | 80
CC(=O)Oc1c(C)nn(C)c(=O)c1-c1c(C)sc2ccc(C)cc12 [Compound 25] | 100
COc1nn(C)c(=O)c(-c2c(C)sc3ccccc23)c1O [Compound 33] | 100

I have 3 molecules here; please give me Plant response rating, Ragweed for each one.
1. CCC(=O)Oc1c(C)nn(C)c(=O)c1-c1c(C)sc2c(C)cc(C)cc12 [Compound 28]
2. COc1nn(C)c(=O)c(-c2c(C)ccc3ccccc23)c1OC(=O)OC(C)C [Compound 36]
3. Cc1ccc(-c2c(O)cnn(C)c2=O)c2ccccc12 [Compound 50]

Output:
1. 90
2. 90
3. 0

====

Test system: chickweed (common chickweed, Stellaria media)
Assay: Test C greenhouse herbicide test, postemergence
Assay type: in vivo
Condition Set: Postemergence, 250 g ai/ha; scale 0 to 100, 0 no effect, 100 complete control; 13 to 15 d
Readout Type: Plant response rating, Chickweed
Give bare numbers.

Example results:
Molecule | Plant response rating, Chickweed
Cc1ccc2ccccc2c1-c1c(O)cnn(C)c1=O | 70
Cc1cc(C)c2ccccc2c1-c1c(OS(C)(=O)=O)c(C)nn(C)c1=O | 95
COC(=O)Oc1c(C)nn(C)c(=O)c1-c1c([N+](=O)[O-])ccc2ccccc12 | 95

Each of the following entries comes with a recorded value; kindly state Plant response rating, Chickweed for each.
1. Cc1ccc2sc(C)c(-c3c(O)c(C)nn(C)c3=O)c2c1
2. CC(=O)Oc1c(C)nn(C)c(=O)c1-c1c(C)sc2ccc(C)cc12
3. CCOC(=O)Oc1c(C)nn(C)c(=O)c1-c1c(C)sc2ccc(C)cc12
4. C#CCOC(=O)Oc1c(C)nn(C)c(=O)c1-c1c(C)sc2ccc(C)cc12

Output:
1: 100; 2: 100; 3: 98; 4: 98

====

Tested on: galium (catchweed bedstraw, Galium aparine)
Assay: Test C greenhouse herbicide test, pre- and postemergence
Type: in vivo
Condition Set: Postemergence, 125 g ai/ha; scale 0 to 100, 0 is no effect, 100 is complete control
From the text: […]
Readout Type: Plant response rating, Galium
Answers are plain numbers.

Below, each entry is followed by its recorded Plant response rating, Galium result.
Molecule | Plant response rating, Galium
Cc1nn(C)c(=O)c(-c2cc(F)cc3ccccc23)c1OS(C)(=O)=O | 95
Cc1cc(C)c2sc(C)c(-c3c(OC(=O)OCCCl)c(C)nn(C)c3=O)c2c1 | 100
CC(=O)Oc1c(C#N)nn(C)c(=O)c1-c1c(C)ccc2ccccc12 | 98

Your task in this section: give Plant response rating, Galium for each listed record.
1. Cc1ccc2ccccc2c1-c1c(O)c(Cl)nn(C)c1=O
2. Cc1ccc2ccccc2c1-c1c(O)c(C)nn(C)c1=O

Output:
1: 95; 2: 98

====

Tested on: wheat (winter wheat, Triticum aestivum)
Assay: Test C greenhouse herbicide test, pre- and postemergence
Assay type: in vivo
Condition Set: Preemergence, 31 g ai/ha; scale 0 to 100, 0 is no effect, 100 is complete control
For each entry below, report its Plant response rating, Wheat value.
Numbers only.

Consider the following illustrative entries.
Molecule | Plant response rating, Wheat
CCOC(=O)Oc1c(C)nn(C)c(=O)c1-c1c(CC)ccc2ccccc12 [Compound 37] | 0
CC(=O)Oc1c(Br)nn(C)c(=O)c1-c1c(C)ccc2ccccc12 [Compound 129] | 35

Please state Plant response rating, Wheat for every molecule in the list that follows.
1. CC(=O)Oc1c(C)nn(C)c(=O)c1-c1c(C)cc(C)c2ccccc12 [Compound 153]
2. CCC(=O)Oc1c(Cl)nn(C)c(=O)c1-c1c(C)sc2ccc(Cl)cc12 [Compound 111]
3. Cc1cc(C)c2sc(C)c(-c3c(OC(=O)OCCCl)c(C)nn(C)c3=O)c2c1 [Compound 85]
4. COc1nn(C)c(=O)c(-c2c(C)ccc3ccccc23)c1OC(=O)OC(C)C [Compound 36]

Output:
0
0
0
0

====

Task for the reader: assign each of the following compounds its reported Plant response rating (scale of 0 to 100), Field Poppy.
System: field poppy (Papaver rhoeas)
Assay: Test D controlled growth environment herbicide test, pre- and postemergence
Format: in vivo
Condition Set: Preemergence, 62 g ai/ha
Give bare numbers.

Field: example entries. Status: answers known.
Molecule | Value Observed
CCOC(=O)Oc1c(C)nn(C)c(=O)c1-c1c(C)sc2ccc(C)cc12 | 100
Cc1nn(C)c(=O)c(-c2c(C)sc3ccc(Cl)cc23)c1O | 100
CC(=O)Oc1c(C)nn(C)c(=O)c1-c1c(C)cc(C)c2ccccc12 | 100

Task: For C#CCOC(=O)Oc1c(C)nn(C)c(=O)c1-c1c(C)sc2ccc(C)cc12 , what is its reported Plant response rating (scale of 0 to 100), Field Poppy?
Output: 100

====

Test system: kochia (Kochia scoparia)
Assay: Test C greenhouse herbicide test, postemergence
Assay type: in vivo
Condition Set: Postemergence, 250 g ai/ha; scale 0 to 100, 0 no effect, 100 complete control; 13 to 15 d
Source text: At the same time, plants selected from these crop and weed species and also chickweed (common chickweed, Stellaria media), kochia (Kochia scoparia), and oat, wild (wild oat, Avena fatua), were planted in pots containing Redi-Earth® planting medium (Scotts Company, 14111 Scottslawn Road, Marysville, Ohio 43041) comprising spaghnum peat moss, vermiculite, wetting agent and starter nutrients and treated with postemergence applications of test chemicals formulated in the same manner. […]
Assign labels as follows, please: 1 for Plant response rating, Kochia below 80; -1 for Plant response rating, Kochia equal to or exceeding 80.

Task: Answer whether the molecule CCOC(=O)Oc1c(C)nn(C)c(=O)c1-c1c(C)sc2ccc(C)cc12 [Compound 82] has Plant response rating, Kochia strictly less than 80
Output: -1

Task: Dear colleague, could you confirm whether Plant response rating, Kochia of Cc1ccc2ccc(C)c(-c3c(O)c(C)nn(C)c3=O)c2c1 [Compound 60] falls below 80? Thanks.
Output: -1

====

System: arrowleaf sida (Sida rhombifolia)
Assay: Test E greenhouse herbicide test, pre- and postemergence
Assay type: in vivo
Condition Set: 125 g ai/ha, Postemergence; scale 0 to 100 (0 no effect, 100 complete control)
Readout Type: Plant response rating, Arrowleaf Sida
Numbers only.

Molecule | Measured On | Value Observed
COc1nn(C)c(=O)c(-c2c(C)sc3ccc(Cl)cc23)c1O | arrowleaf sida (Sida rhombifolia) | 70
CCC(=O)Oc1c(C)nn(C)c(=O)c1-c1c(C)sc2ccc(C)cc12 | arrowleaf sida (Sida rhombifolia) | 70
CC(=O)Oc1c(C)nn(C)c(=O)c1-c1ccc(F)c2ccccc12 | arrowleaf sida (Sida rhombifolia) | 90

Read the next record carefully.
Task: Any idea what its Plant response rating, Arrowleaf Sida is? The compound is Cc1ccc2sc(C)c(-c3c(O)c(C)nn(C)c3=O)c2c1
Output: 70

====

System: kochia (Kochia scoparia)
Assay: Test A greenhouse herbicide test, pre- and postemergence
Type: in vivo
Condition Set: Postemergence, 125 g ai/ha; 0 to 100 scale where 0 is no effect and 100 is complete control
Where Plant response rating, Kochia equals or exceeds 90, the correct label is met; where it does not, the label is not met.

Recorded results for 3 compounds are shown here.
Molecule | Class
CCOC(=O)Oc1c(C)nn(C)c(=O)c1-c1c(C)sc2c(C)cc(C)cc12 | not met
Cc1cc(C)c2c(-c3c(OC(=O)C(C)(C)C)c(C)nn(C)c3=O)c(C)sc2c1 | not met
CCC(=O)Oc1c(Cl)nn(C)c(=O)c1-c1c(C)sc2ccc(Cl)cc12 | not met

Task: State whether the measured Plant response rating, Kochia reaches 90, counting equality as reaching it, for COc1nn(C)c(=O)c(-c2c(C)ccc3ccccc23)c1O
Output: met

Task: Does Plant response rating, Kochia meet or surpass 90 for Cc1nn(C)c(=O)c(-c2ccc(F)c3ccccc23)c1OC(=O)CC(F)(F)F ?
Output: not met
